The measured values listed here are drawn from patent US20220056118A1.

- TARGET_SYSTEM: T1, DAGWGNLc (SEQ ID NO: 9) peptide conjugated to bovine serum albumin (human; bovine, UniProt P02769 25-607, N-terminus acetylated; C-terminal Cys conjugated to BSA)
- T1 construct: TDP-43 residues 65-71 plus an added C-terminal cysteine; also called Peptide conjugated to bovine serum albumin (BSA)
- T1 sequence (P02769 25-607 limits assumed): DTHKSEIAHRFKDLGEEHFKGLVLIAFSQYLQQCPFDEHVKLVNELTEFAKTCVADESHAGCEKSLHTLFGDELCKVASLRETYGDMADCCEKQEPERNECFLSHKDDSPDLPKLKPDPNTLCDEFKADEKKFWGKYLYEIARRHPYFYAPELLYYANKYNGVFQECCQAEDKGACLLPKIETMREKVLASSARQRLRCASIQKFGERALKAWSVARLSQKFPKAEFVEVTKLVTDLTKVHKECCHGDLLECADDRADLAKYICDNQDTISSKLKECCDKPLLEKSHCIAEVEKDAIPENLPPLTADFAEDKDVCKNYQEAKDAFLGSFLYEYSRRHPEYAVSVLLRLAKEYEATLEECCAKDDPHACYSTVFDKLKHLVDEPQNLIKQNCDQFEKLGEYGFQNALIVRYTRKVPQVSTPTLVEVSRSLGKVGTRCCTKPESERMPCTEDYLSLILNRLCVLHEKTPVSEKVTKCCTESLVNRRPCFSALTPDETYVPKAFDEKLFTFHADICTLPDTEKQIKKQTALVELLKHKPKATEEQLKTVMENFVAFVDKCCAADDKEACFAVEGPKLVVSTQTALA
- METHOD_NOTES: SPR, peptide-BSA immobilized (about 50 RU), antibody injected, Langmuir 1:1 fit
- Description: Surface plasmon resonance (SPR) analysis was used to measure the binding kinetics of monoclonal antibodies to the peptide epitope. Peptide conjugated to bovine serum albumin (BSA) was immobilized at a very low density (approximately 50 RUs) on flow cells of a sensor chip. […] Binding parameters were calculated using kinetic curve fitting and a Langmuir 1:1 interaction model.
PROPERTY_LABEL: pKd
# log scale: pKd equals minus log10 of the concentration in mol/L

BINDER	PROPERTY_LABEL	RECORDED_RESULT
mouse monoclonal antibody 3E8 (antibody, V domains shown, Mouse hybridoma antibody; also called Mouse 3E8) VH: DVKLVESGGGLVKLGGSLKLSCAASGFTFSSYYMSWVRQTPEKRLELVATINSNGGSTYYPDTVKGRITISRDNAKNTLQLQMSSLRSEDTALYYCVRQNYEGAYWGQGTLVTVSA VL: DVLMTQTPLSLPVTLGDQASISCRSSQSIVHSNGNTYLEWYLQKPGQSPKLLIYKVSNRFSGVPDRFSGSGSGTDFTLKISRVEAEDLGVYYCFQSSHVPWTFGGGTKLEIK	pKd	9.14
mouse monoclonal antibody 2F7 (antibody, V domains shown, Mouse hybridoma antibody; also called Mouse 2F7) VH: DVKLVESGGGLVKLGGSLKLSCAASGFTFSSYYMSWVRQTPEKRLELVATINSNGGSTYYPDTVKGRITISRDNAKNTLQLQMSSLRSEDTALYYCVRQNYEGAYWGQGTLVTVSA VL: DVLMTQTPLSLPVTLGDQASISCRSSQSIVHSNGNTYLEWYLQKPGQSPKLLIYKVSNRFSGVPDRFSGSGSGTDFTLKISRVEAEDLGVYYCFQSSHVPWTFGGGTKLEIK	pKd	9.21

Provide pKd value for the following binder: rabbit monoclonal antibody 17 (17H3-17K3) (antibody, V domains shown, Recombinant; also called Rabbit 17; clone 17) VH: QEQLVESGGGLVQPGASLTLTCTASGFSFSSSYVMCWVRQAPGKGLEWITCSDTGINTWYASWAKGRFTISKTSSTTVTLQMTSLTAADTATYFCARRYTGDTYLGNFNLWGQGTLVTVS VL: AQVLTQTPASVSAAVGGTVTINCQASQSVYKNNYLSWYQQKPGQPPKLLIYKASTLASGVPSRFKGSGSGTQFTLTISDVQCDDAATYYCAGGWRSLNAFGGGTEVVVK
10.04

Provide pKd value for the following binder: rabbit monoclonal antibody 14 (14H1-14K2) (antibody, V domains shown, Recombinant; also called Rabbit 14; clone 14) VH: QEQLEESGGDLVKPEGSLTLTCTASGFSFSSNYVMCWVRQAPGKGLEWVACIWFAGIVDTTYYATWAKGRFTISKTSSTTVTLQMTSLTAADTATYFCARNPVGSVNLWGQGTLVTVS VL: VMTQTPSSKSVPVGGSVTINCQASESVYSNNRLSWYQQKPGQPPKLLIYYASTLESGVPSRFKGSGFGTHFTLTISGAQCDDAATYYCAGWRGARTDGVDFGGGTEVVVK
10.82
